Listing of entries alongside the reported Kd.
- target-or-system: T1, human BACE1 ECD
- T1 construct: analyte of the Octet assay (200 nM) and enzyme of the first short substrate assay; also called human BACE1 extracellular domain
- T1 sequence (single chain, as listed by the source limits assumed): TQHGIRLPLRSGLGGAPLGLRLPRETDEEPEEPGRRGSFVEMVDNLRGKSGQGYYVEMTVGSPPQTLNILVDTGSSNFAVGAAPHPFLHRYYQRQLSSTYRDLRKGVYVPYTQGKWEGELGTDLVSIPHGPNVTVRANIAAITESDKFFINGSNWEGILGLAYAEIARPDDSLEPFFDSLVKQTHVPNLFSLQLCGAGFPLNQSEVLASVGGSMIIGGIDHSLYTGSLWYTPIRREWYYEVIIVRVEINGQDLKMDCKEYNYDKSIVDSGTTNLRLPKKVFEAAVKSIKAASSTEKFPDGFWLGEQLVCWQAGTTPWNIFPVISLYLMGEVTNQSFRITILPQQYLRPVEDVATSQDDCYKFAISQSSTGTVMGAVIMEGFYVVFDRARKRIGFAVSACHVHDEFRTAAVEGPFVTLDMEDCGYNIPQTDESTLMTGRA
- protocol-description: Octet, pH 5.0, second run
Express it in nM; write the number only.

5896 (antibody, V domains shown, anti-BACE1 IgG) VH: QLQLQESGPGLVKPSETLSLTCTVSGGSISSSSYYWGWIRQPPGKGLEWIGSIYRSGSTYYNPSLKSRVTISVDTSKNQFSLKLSSVTAADTAVYYCARVGHGISYFDLWGRGTLVTVSS VL: EIVLTQSPATLSLSPGERATLSCRASQSVSSYLAWYQQKPGQAPRLLIYDASNRATGIPARFSGSGSGTDFTLTISSLEPEDFAVYYCQQSLTWPPRTFGGGTKVEIK : 1.1

Ask: Tell me the measured Kd of 5905 (antibody, V domains shown, anti-BACE1 IgG) VH: QLQLQESGPGLVKPSETLSLTCTVSGGSISWSSYYWSWIRQPPGKGLEWIGSIYRSGRTYYNPSLKSRVTISVDTSKNQFSLKLSSVTAADTAVYYCARVGHGISYFDLWGRGTLVTVSS VL: EIVLTQSPATLSLSPGERATLSCRASQSVSSYLAWYQQKPGQAPRLLIYDASKRATGIPARFSGSGSGTDFTLTISSLEPEDFAVYYCQQVYTWPPRTFGGGTKVEIK , please.
Result: 0.27
